target: beta-catenin/TCF4 engagement (Homo sapiens); construct: expressed in transfected cells; host or cells: HEK293; assay: Nano-BRET target engagement assay (B-cat-Halo & TCF4-Luc in HEK293 cells); assay type: cell-based; conditions: absolute IC50; read-out: NanoBRET Abs IC50
Sequence (P35222 whole entry): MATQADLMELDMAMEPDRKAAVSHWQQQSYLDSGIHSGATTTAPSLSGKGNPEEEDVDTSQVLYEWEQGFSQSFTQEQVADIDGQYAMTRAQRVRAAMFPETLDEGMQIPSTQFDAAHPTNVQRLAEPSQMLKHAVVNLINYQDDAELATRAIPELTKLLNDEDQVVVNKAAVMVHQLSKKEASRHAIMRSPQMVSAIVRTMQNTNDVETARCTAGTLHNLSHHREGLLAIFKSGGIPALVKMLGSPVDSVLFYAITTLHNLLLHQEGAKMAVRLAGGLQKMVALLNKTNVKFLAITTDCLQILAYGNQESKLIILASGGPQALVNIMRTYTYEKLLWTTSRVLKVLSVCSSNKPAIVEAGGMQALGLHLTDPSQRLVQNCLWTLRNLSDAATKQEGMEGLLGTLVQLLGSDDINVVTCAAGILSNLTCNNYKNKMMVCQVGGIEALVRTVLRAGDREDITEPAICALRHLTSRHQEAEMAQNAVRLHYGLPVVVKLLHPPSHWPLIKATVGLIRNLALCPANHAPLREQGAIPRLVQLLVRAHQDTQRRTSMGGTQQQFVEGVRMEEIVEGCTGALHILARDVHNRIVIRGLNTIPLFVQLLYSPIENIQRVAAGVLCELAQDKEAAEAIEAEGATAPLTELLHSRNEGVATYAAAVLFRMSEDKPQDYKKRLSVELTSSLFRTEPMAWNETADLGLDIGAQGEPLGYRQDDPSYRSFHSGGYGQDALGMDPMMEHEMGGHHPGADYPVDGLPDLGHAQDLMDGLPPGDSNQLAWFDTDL
Mark each entry Fulfilled if its IC50 sits below 20 µM, and Not fulfilled for all others.

Examples with answers:
Input CC(=O)N1CCC[C@]12CC=CCCCC1(CCCC=CCCCOC(=O)N3CC[C@@](C(=O)N[C@@H](Cc4ccsc4)C(=O)N[C@@H](Cc4csc5ccccc45)C(=O)N[C@@H](CCC(N)=O)C(N)=O)(C3)NC(=O)[C@H](CC(C)C)NC(=O)[C@H](Cc3ccccc3)NC(=O)[C@H](C)NC(=O)[C@H](C)NC(=O)[C@H](CCNCC(=O)O)NC(=O)[C@H](CC(=O)O)NC1=O)NC(=O)[C@H](CC(C)(C)C)NC(=O)[C@H](CC(=O)O)NC2=O (stereo partly drawn) ; condition: IC50 strictly below 20 µM. Does it hold?
Not fulfilled

What do you get for CC(=O)N1CCC[C@]12CC=CCCCC1(CCCC=CCCCOC(=O)N3CC[C@@](C(=O)N[C@@H](Cc4ccccc4Cl)C(=O)N[C@@H](Cc4csc5ccccc45)C(=O)N[C@@H](CCC(N)=O)C(N)=O)(C3)NC(=O)[C@H](CC(C)C)NC(=O)[C@H](Cc3ccccc3)NC(=O)[C@H](C)NC(=O)[C@H](C)NC(=O)[C@H](CN(CC(=O)O)CC(F)(F)F)NC(=O)[C@H](CC(=O)O)NC1=O)NC(=O)[C@H](CC(C)(C)C)NC(=O)[C@H](CC(=O)O)NC2=O (stereo partly drawn) ?
Fulfilled

What do you get for CC(=O)N1CCC[C@]12CC=CCCCC1(CCCC=CCCCOC(=O)N3CC[C@@](C(=O)N[C@@H](Cc4ccsc4)C(=O)N[C@@H](Cc4csc5ccccc45)C(=O)N[C@@H](Cc4c[nH]cn4)C(N)=O)(C3)NC(=O)[C@H](CC(N)=O)NC(=O)[C@H](Cc3ccccc3)NC(=O)[C@H](C)NC(=O)C(C)(C)NC(=O)[C@H]([C@@H](C)O)NC(=O)[C@H](CC(N)=O)NC1=O)NC(=O)[C@H](CC(C)(C)C)NC(=O)[C@H](CC(=O)O)NC2=O (stereo partly drawn) ?
Not fulfilled

What do you get for CC(=O)N1CCC[C@]12CC=CCCCC1(CCCC=CCCCOC(=O)N3CC[C@@](C(=O)N[C@@H](Cc4ccsc4)C(=O)N[C@@H](Cc4csc5ccccc45)C(=O)N[C@@H](CCC(N)=O)C(N)=O)(C3)NC(=O)[C@H](CC(C)C)NC(=O)[C@H](Cc3ccccc3)NC(=O)[C@H](C)NC(=O)[C@H](C)NC(=O)[C@H](CN(CCC(F)(F)F)CC(=O)O)NC(=O)[C@H](CC(=O)O)NC1=O)NC(=O)[C@H](CC(C)(C)C)NC(=O)[C@H](CC(=O)O)NC2=O (stereo partly drawn) ?
Fulfilled

What do you get for CC(=O)N1CCC[C@]12CC=CCCCC1(CCCC=CCCCOC(=O)N3CC[C@@](C(=O)N[C@@H](Cc4ccsc4)C(=O)N[C@@H](Cc4csc5ccccc45)C(=O)N[C@@H](CCC(N)=O)C(N)=O)(C3)NC(=O)[C@H](CC(C)C)NC(=O)[C@H](Cc3ccccc3)NC(=O)[C@H](C)NC(=O)[C@H](CCCN3CCC(F)(F)CC3)NC(=O)[C@H](CC(=O)O)NC(=O)[C@H](CC(=O)O)NC1=O)NC(=O)[C@H](CC(C)(C)C)NC(=O)[C@H](CC(=O)O)NC2=O (stereo partly drawn) ?
Fulfilled

Moving on to another molecule below.
Input CCNC(=O)[C@H](CCC(N)=O)NC(=O)[C@H](Cc1csc2ccccc12)NC(=O)[C@H](Cc1ccccc1Cl)NC(=O)[C@]12CCN(C1)C(=O)OCCCC=CCCCC1(CCCC=CC[C@]3(CCCN3C(C)=O)C(=O)N[C@@H](CC(=O)O)C(=O)N[C@@H](CC(C)(C)C)C(=O)N1)C(=O)N[C@@H](CC(=O)O)C(=O)N[C@@H](CC(=O)O)C(=O)N[C@@H](C)C(=O)N[C@@H](C)C(=O)N[C@@H](Cc1ccccc1)C(=O)N[C@@H](CC(C)C)C(=O)N2 (stereo partly drawn) ; condition: IC50 strictly below 20 µM. Does it hold?
Not fulfilled
